Experiment description: Induction of mouse BMDC cell maturation assessed as change in CD86 positive cells incubated for 18 hrs by staining based flow cytometric analysis relative to control; also: test concentration or dose not given here
Assay type: functional
Parameter: Activity
Respond with the figure and its unit, in that order.

Req: Specify measured Activity for CCCCCCCCCCCCCC(=O)O[C@H](CCCCCCCCCCC)CC(=O)NCCO[C@@H]1O[C@H](CN)[C@@H](OP(=O)(O)O)[C@H](OC(=O)C[C@@H](CCCCCCCCCCC)OC(=O)CCCCCCCCCCCCC)[C@H]1NC(=O)C[C@@H](CCCCCCCCCCC)OC(=O)CCCCCCCCCCCCC .
Resp: 12.9%

Req: Report Activity for CCCCCCCCCCCCCC(=O)O[C@H](CCCCCCCCCCC)CC(=O)NCCO[C@@H]1O[C@H](CNC(=O)CCc2cn(CCO[C@@H]3O[C@H](CO)[C@@H](O)[C@H](O[C@H](C)C(=O)N[C@H](C)C(=O)N[C@H](CCC(=O)O)C(N)=O)[C@H]3NC(C)=O)nn2)[C@@H](OP(=O)(O)O)[C@H](OC(=O)C[C@@H](CCCCCCCCCCC)OC(=O)CCCCCCCCCCCCC)[C@H]1NC(=O)C[C@@H](CCCCCCCCCCC)OC(=O)CCCCCCCCCCCCC
Resp: 22.4%

Req: Output measured Activity for this item: CC(=O)N[C@@H]1[C@@H](O[C@H](C)C(=O)N[C@@H](C)C(=O)N[C@H](CCC(=O)O)C(N)=O)[C@H](O)[C@@H](CO)O[C@H]1O [MURAMYLDIPEPTIDE]
Resp: 11.4%

Req: Given CCCCCCCCCCCCCC(=O)O[C@H](CCCCCCCCCCC)CC(=O)NCCO[C@@H]1O[C@H](CO)[C@@H](OP(=O)(O)O)[C@H](OC(=O)C[C@@H](CCCCCCCCCCC)OC(=O)CCCCCCCCCCCCC)[C@H]1NC(=O)C[C@@H](CCCCCCCCCCC)OC(=O)CCCCCCCCCCCCC.CCN(CC)CC , respond with its Activity.
Resp: 14%

Measured values drawn from ChEMBL document CHEMBL6092137 for this set.
